- Tested system: HIV-1 integrase (Human immunodeficiency virus type 1 group M subtype B, UniProt P12497)
- Construct: […]; AS MEASURED IN AN EXT[…]-1 INTEGRASE ASSAY
- Procedure details: extracellular HIV-1 integrase assay (3'-processing and strand transfer)
- Format: biochemical
- Particulars: 3'-processing step; read-out: 3'P inhibitory potency
- Description: Integrase (IN) has emerged as an attractive target, because it is necessary for stable infection and homologous enzymes are lacking in the human host[11]. The function of IN is to catalyze integration of proviral DNA, resulting from the reverse transcription of viral RNA, into the host genome. […]
Measured endpoint: IC50

Entry O=C(C(=O)c1sc(N2CCN(c3ccccc3)CC2)nc1-c1ccccc1)c1sc(N2CCN(c3ccccc3)CC2)nc1-c1ccccc1 ; IC50 = 122 µM

Entry O=C(Nc1nc(-c2ccccc2)c(C(=O)C(=O)c2sc(NC(=O)c3ccccc3)nc2-c2ccccc2)s1)c1ccccc1 ; IC50 = > 500 µM

Entry O=C(C(=O)c1sc(N2CCOCC2)nc1-c1ccccc1)c1sc(N2CCOCC2)nc1-c1ccccc1 ; IC50 = > 500 µM

Entry Cc1nc(Nc2ccc(Cl)cc2)sc1C(=O)C(=O)c1sc(Nc2ccc(Cl)cc2)nc1C ; IC50 = 132 µM

###

Listing of recorded inhibition in vivo at 100 mg/kg by entry.
- Tested on: carrageenan-induced rat-paw edema
- Procedure details: carrageenan-induced rat paw edema method
- Format: in vivo
- Particulars: 100 mg/kg b.w; rat paw edema; group of 6 animals; read-out: % PROTECTION Dose 100 mg/kg b.w
Give the number first and the unit second.

Consider the worked cases shown below.
| Compound | Tested system | inhibition in vivo at 100 mg/kg |
| --- | --- | --- |
| O=C(Nc1nc(Cc2ccccc2)c(C(=O)C(=O)c2sc(NC(=O)c3ccccc3)nc2Cc2ccccc2)s1)c1ccccc1 [G-15] | carrageenan-induced rat-paw edema | 47% |
| CCOC(=O)Nc1nc(-c2ccccc2)c(C(=O)C(=O)c2sc(NC(=O)OCC)nc2-c2ccccc2)s1 [G-10] | carrageenan-induced rat-paw edema | 34% |
| CNc1nc(C)c(C(=O)C(=O)c2sc(NC)nc2C)s1 [G-1] | carrageenan-induced rat-paw edema | 14% |
| O=C(C(=O)c1sc(Nc2ccccc2)nc1-c1ccccc1)c1sc(Nc2ccccc2)nc1-c1ccccc1 [G-7] | carrageenan-induced rat-paw edema | 70% |
| O=C(C(=O)c1sc(Nc2ccc(Cl)cc2)nc1-c1ccccc1)c1sc(Nc2ccc(Cl)cc2)nc1-c1ccccc1 [G-8] | carrageenan-induced rat-paw edema | 66% |
| COC(=O)Nc1nc(-c2ccccc2)c(C(=O)C(=O)c2sc(NC(=O)OC)nc2-c2ccccc2)s1 [G-9] | carrageenan-induced rat-paw edema | 26% |
| CCOC(=O)Nc1nc(C)c(C(=O)C(=O)c2sc(NC(=O)OCC)nc2C)s1 [G-5] | carrageenan-induced rat-paw edema | 33% |
| Cc1nc(Nc2ccccc2)sc1C(=O)C(=O)c1sc(Nc2ccccc2)nc1C [G-2] | carrageenan-induced rat-paw edema | 23% |
| O=C(C(=O)c1sc(Nc2ccccc2)nc1Cc1ccccc1)c1sc(Nc2ccccc2)nc1Cc1ccccc1 [G-11] | carrageenan-induced rat-paw edema | 23% |
| CCOC(=O)Nc1nc(Cc2ccccc2)c(C(=O)C(=O)c2sc(NC(=O)OCC)nc2Cc2ccccc2)s1 [G-14] | carrageenan-induced rat-paw edema | 38% |

Entry O=C(C(=O)c1sc(Nc2ccc(Cl)cc2)nc1Cc1ccccc1)c1sc(Nc2ccc(Cl)cc2)nc1Cc1ccccc1 [G-12] ; inhibition in vivo at 100 mg/kg = 72%

Entry COC(=O)Nc1nc(C)c(C(=O)C(=O)c2sc(NC(=O)OC)nc2C)s1 [G-4] ; inhibition in vivo at 100 mg/kg = 40%

Entry O=C(Nc1nc(-c2ccccc2)c(C(=O)C(=O)c2sc(NC(=O)c3ccccc3)nc2-c2ccccc2)s1)c1ccccc1 [G-6] ; inhibition in vivo at 100 mg/kg = 74%

Entry COC(=O)Nc1nc(Cc2ccccc2)c(C(=O)C(=O)c2sc(NC(=O)OC)nc2Cc2ccccc2)s1 [G-13] ; inhibition in vivo at 100 mg/kg = 35%

Entry Cc1nc(Nc2ccc(Cl)cc2)sc1C(=O)C(=O)c1sc(Nc2ccc(Cl)cc2)nc1C [G-3] ; inhibition in vivo at 100 mg/kg = 73%

###

- Tested system: HIV-1 integrase (Human immunodeficiency virus type 1 group M subtype B)
- Construct: […]; AS MEASURED IN AN EXT[…]-1 INTEGRASE ASSAY
- Procedure details: extracellular HIV-1 integrase assay (3'-processing and strand transfer)
- Type: biochemical
- Particulars: strand transfer step; read-out: ST inhibitory potency
Measured endpoint: pIC50
Bear in mind: pIC50 is minus log10 of a mol/L concentration; give just that figure.

Consider the worked cases shown below.
| Compound structure | pIC50 |
| --- | --- |
| O=C(Nc1nc(-c2ccccc2)c(C(=O)C(=O)c2sc(NC(=O)c3ccccc3)nc2-c2ccccc2)s1)c1ccccc1 | 3.56 |
| O=C(C(=O)c1sc(N2CCOCC2)nc1-c1ccccc1)c1sc(N2CCOCC2)nc1-c1ccccc1 | 3.96 |
| Cc1nc(Nc2ccc(Cl)cc2)sc1C(=O)C(=O)c1sc(Nc2ccc(Cl)cc2)nc1C | 3.40 |

Entry O=C(C(=O)c1sc(N2CCN(c3ccccc3)CC2)nc1-c1ccccc1)c1sc(N2CCN(c3ccccc3)CC2)nc1-c1ccccc1 ; pIC50 = 4.06
